Assay: Drug uptake in MDR1A knock-out CF1 mouse brain at 30 mg/kg, po after 2 hrs
Format: ADME, organism-based
Parameters: dose 30 mg/kg, route oral
Settings: read-out: Drug uptake
Property measured: concentration at 2 h (nM)
The reply should be a number in nM, with the unit left off.

Any idea what concentration at 2 h was measured for `C[C@@H](c1ccc(-c2ccccc2)cc1)[C@H](NC(=O)C(C)(C)N)C(=O)N1CCC[C@H]1c1nc2cc(Cl)c(Cl)cc2[nH]1` ?
166

* * *

IC50 values by entry
Target: Lysosomal Pro-X carboxypeptidase (Mus musculus)
Assay: Inhibition of recombinant mouse PrCP using Mca-Ala-Pro-Lys(Dnp)-OH as substrate measured for 30 mins by continuous fluorometric assay
Express it in nM; write the number only.

These recorded examples may help you get a feel for the data.
C[C@H](NC(=O)CCN1CCC(c2ccccc2)CC1)c1ccc(Br)cc1 : 20
C[C@H](NC(=O)[C@@H](NC(=O)C(C)(C)N)[C@@H](C)c1ccc(-c2ccccc2)cc1)c1ccc(Cl)cc1 : 2.3

What IC50 value was documented for this molecule, `C[C@H](NC(=O)CCN1CCC(c2ccccc2)CC1)c1ccc(Cl)cc1` ?
54

Would you mind telling me what IC50 value was observed for CC(NC(=O)CCN1CCC(c2ccccc2)CC1)c1ccccc1-c1ccccc1 (stereo not drawn) ?
5.7

So what's the measured IC50 for this one? `O=C(CCN1CCC(c2nc(-c3ccccn3)no2)CC1)NC(c1ccc(Cl)cc1)c1ccc(Cl)cc1`
10

So what does the record say about IC50 for C[C@@H](c1ccc(-c2ccccc2)cc1)[C@H](NC(=O)C(C)(C)N)C(=O)NC(c1ccncc1)c1ccc(Cl)cc1 (mixture of isomers) ?
0.4

# input molecule: C[C@@H](c1ccc(-c2ccccc2)cc1)[C@H](N)C(=O)NC(c1ccncc1)c1ccc(Cl)cc1 (mixture of isomers) ; wanted: its IC50
1.4

Report IC50 for O=C(CCN1CCC(c2ccccc2)CC1)NC(c1ccc(Cl)cc1)C(F)F (stereo not drawn) please.
17

* * *

Experiment: Volume of distribution in mouse at 1 mg/kg, iv and 2 mg/kg, po by LC-MS/MS analysis
Format: ADME, organism-based
Conditions: in vivo
We begin with a simple list: items and their reported Vd.
Just the number please, in L/kg, no unit attached.

Here is how some compounds turned out for Vd.
C[C@@H](c1ccc(-c2ccccc2)cc1)[C@H](NC(=O)C(C)(C)N)C(=O)NC(c1ccncc1)c1ccc(Cl)cc1 (mixture of isomers) : 21
C[C@H](NC(=O)CCN1CCC(c2ccccc2)CC1)c1ccc(Cl)cc1 : 27

Next item in the queue.
Please report the recorded Vd for C[C@@H](c1ccc(-c2ccccc2)cc1)[C@H](NC(=O)C(C)(C)N)C(=O)NC(c1ccc(Cl)cc1)C(F)(F)F (mixture of isomers) .
24

* * *

Target: UniProt Q7TMR0
Experiment: Inhibition of PrCP-mediated conversion of Ang3 to Ang(2-7) in mouse plasma
Catalogue of compounds with associated IC50
Give a bare numeral; the unit µM is implied.

Form field: IC50 recorded for `C[C@H](NC(=O)CCN1CCC(c2ccccc2)CC1)c1ccc(Cl)cc1` with UniProt Q7TMR0 (enter value)
0.24

* * *

Target: Lysosomal Pro-X carboxypeptidase (Mus musculus, UniProt Q7TMR0)
Sequence (Q7TMR0 whole entry): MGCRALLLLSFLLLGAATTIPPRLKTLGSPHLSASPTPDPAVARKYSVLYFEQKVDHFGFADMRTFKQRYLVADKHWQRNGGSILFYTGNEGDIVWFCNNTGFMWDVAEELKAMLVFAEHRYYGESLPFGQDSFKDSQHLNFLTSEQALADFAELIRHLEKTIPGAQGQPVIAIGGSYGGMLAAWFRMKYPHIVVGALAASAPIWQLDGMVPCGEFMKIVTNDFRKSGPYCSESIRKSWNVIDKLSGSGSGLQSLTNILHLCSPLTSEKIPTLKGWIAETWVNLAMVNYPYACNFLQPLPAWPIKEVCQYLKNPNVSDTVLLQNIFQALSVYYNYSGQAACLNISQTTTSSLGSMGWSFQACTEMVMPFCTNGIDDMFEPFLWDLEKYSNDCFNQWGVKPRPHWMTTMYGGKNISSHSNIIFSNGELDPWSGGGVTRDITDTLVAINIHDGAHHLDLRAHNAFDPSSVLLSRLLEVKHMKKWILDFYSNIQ
Experiment: Inhibition of PrCP-mediated conversion of Ang3 to Ang(2-7) in mouse plasma
Recorded IC50 for the following compounds
Numeric answer only, unit µM assumed.

Worked examples follow.
C[C@H](NC(=O)[C@@H](NC(=O)C(C)(C)N)[C@@H](C)c1ccc(-c2ccccc2)cc1)c1ccc(Cl)cc1 : 0.198
O=C(CCN1CCC(c2nc(-c3ccccn3)no2)CC1)NC(c1ccc(Cl)cc1)c1ccc(Cl)cc1 : 0.305

# query: IC50 | item C[C@@H](c1ccc(-c2ccccc2)cc1)[C@H](NC(=O)C(C)(C)N)C(=O)NC(c1ccncc1)c1ccc(Cl)cc1 (mixture of isomers) | system: Lysosomal Pro-X carboxypeptidase (Mus musculus, UniProt Q7TMR0)
0.006
